- run-description: Solubility of an epimer in a solvent at the epimerization temperature (saturated slurry, filtered sample, HPLC assay)
- Format: physicochemical
- assay-conditions: saturated slurry in denatured ethanol (2B-3), organic solvent or mixture, thermodynamic from solid, 65 C
reported-property: solubility

>>> df
                                   compound  recorded_measurement
0  CC1(C)COC2(CC[C@H](CC(C(=O)O)c3ccc(S(C)(=O)=O)c(Cl)c3)C2)OC1 (stereo partly shown) [R,R epimer]            23.2 mg/mL

---

- run-description: Solubility of an epimer in a solvent at the epimerization temperature (saturated slurry, filtered sample, HPLC assay)
- Assay type: physicochemical
- assay-conditions: saturated slurry in denatured ethanol (2B-3), organic solvent or mixture, thermodynamic from solid, 70 C
reported-property: solubility

                                   compound  reported_property  recorded_measurement
0  CC1(C)COC2(CC[C@H](CC(C(=O)O)c3ccc(S(C)(=O)=O)c(Cl)c3)C2)OC1 (stereo partly shown) [R,R epimer]         solubility            27.1 mg/mL
